These entries and their values trace back to ChEMBL document CHEMBL1131530.

- Method notes: Selectivity for dihydrofolate reductase enzyme in rat liver Toxoplasma gondii
Quantity name: Selectivity ratio

• Nc1nc(N)c2c3c(oc2n1)CN(Cc1ccc(Cl)cc1Cl)CC3 = 3.9
• Nc1nc(N)c2c3c(oc2n1)CN(Cc1c(Cl)cccc1Cl)CC3 = 2.5
• Nc1nc(N)c2c(CNc3ccc(C(=O)NC(CCC(=O)O)C(=O)O)cc3)coc2n1 (stereo unspecified) = 1.9
• Nc1nc(N)c2c3c(oc2n1)CN(Cc1ccc(C(=O)N[C@@H](CCC(=O)O)C(=O)O)cc1)CC3 = 4
• CN(Cc1coc2nc(N)nc(N)c12)c1ccc(C(=O)NC(CCC(=O)O)C(=O)O)cc1 (stereo unspecified) = 0.021
